experiment: total protein half-life in vivo (active degradation + dilution); higher = more stable protein; settings: E. coli NCM3722 delta-clpP delta-lon delta-hslV; growth: N-lim chemostat; doubling time 6 h
Each entry below carries its reported total protein half-life in vivo.
Assay Metric: total protein half-life in vivo (h)

>>> reported_value("MFEITGINVSGALKAVVMATGFENPLSSVNEIETKLSALLGSETTGEILFDLLCANGPEWNRFVTLEMKYGRIMLDTAKIIDEQDVPTHILSKLTFTLRNHPEYLEASVLSPDDVRQVLSMDF")
5.32
>>> reported_value("MISSLWIAKTGLDAQQTNMDVIANNLANVSTNGFKRQRAVFEDLLYQTIRQPGAQSSEQTTLPSGLQIGTGVRPVATERLHSQGNLSQTNNSKDVAIKGQGFFQVMLPDGSSAYTRDGSFQVDQNGQLVTAGGFQVQPAITIPANALSITIGRDGVVSVTQQGQAAPVQVGQLNLTTFMNDTGLESIGENLYTETQSSGAPNESTPGLNGAGLLYQGYVETSNVNVAEELVNMIQVQRAYEINSKAVSTTDQMLQKLTQL [P0ABX5]")
4.91
